experimentalDetails: Bioavailability in cynomolgus monkey at 10 mg/kg, po
Format: ADME, organism-based, Macaca fascicularis
conditionDetails: in vivo
assayEndpoint: bioavailability (%)

> print(dat)
                            molecularstring  numericresult
1  C[C@@H](NC(=O)Nc1cccc(-c2nnnn2C)c1)[C@@H](O)CN1CCC[C@@H](Cc2ccc(F)cc2)C1             19

---

experimentalDetails: Bioavailability in chimpanzee at 2 mg/kg, po
Type: ADME, organism-based, Pan troglodytes
conditionDetails: in vivo
assayEndpoint: bioavailability (%)

> print(dat)
                            molecularstring  numericresult
1  C[C@@H](NC(=O)Nc1cccc(-c2nnnn2C)c1)[C@@H](O)CN1CCC[C@@H](Cc2ccc(F)cc2)C1             16
